Data origin: patent US9963462B2

# IC50 measurements, system: SNAP-hSPR (sepiapterin reductase, SPR) (Homo sapiens, UniProt P35270)
# Sequence (P35270 whole entry): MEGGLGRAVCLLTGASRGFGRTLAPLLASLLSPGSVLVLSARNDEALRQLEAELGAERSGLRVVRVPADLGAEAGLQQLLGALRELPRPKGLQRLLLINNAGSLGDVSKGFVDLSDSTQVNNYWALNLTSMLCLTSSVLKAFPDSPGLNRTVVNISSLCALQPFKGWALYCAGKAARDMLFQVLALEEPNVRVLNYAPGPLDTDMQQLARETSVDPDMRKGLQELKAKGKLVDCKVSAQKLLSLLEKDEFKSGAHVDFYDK
API: value field is a number in nM; no unit string.

{"columns": ["COMPOUND", "MEASUREMENT_UNIT", "IC50"],
 "data": [
  ["Cc1c(C(=O)N2CCN(S(=O)(=O)c3cccc(F)c3)CC2)cnn1-c1nn2cccc2c(=O)[nH]1 [Q-1823]", "nM", 1],
  ["Cc1c(C(=O)N2CCN(C(=O)OC(C)(C)C)C[C@@H]2C)cnn1-c1nn2cccc2c(=O)[nH]1 [Q-0915]", "nM", 2],
  ["Cc1c(C(=O)N2CCC3(CC2)COC3)cnn1-c1nn2cccc2c(=O)[nH]1 [Q-0793]", "nM", 3],
  ["Cc1c(C(=O)N2C3CCC2CC(O)(c2ccccc2)C3)cnn1-c1nn2cccc2c(=O)[nH]1 (centres unmarked) [Q-0797]", "nM", 1],
  ["Cc1cc(=O)[nH]c(-n2ncc(C(=O)NC34CC5CC(CC(C5)C3)C4)c2C)n1 [Q-0305]", "nM", 30],
  ["COC1CCN(C(=O)c2cnn(-c3nc4c(c(=O)[nH]3)CCC4)c2C)CC1 [Q-0461]", "nM", 3],
  ["Cc1c(C(=O)N2CC3CC3(O)C2)cnn1-c1nc2sccc2c(=O)[nH]1 (centres unmarked) [Q-0617]", "nM", 20],
  ["Cc1c(C(=O)N2C[C@@H]3[C@H](C2)[C@@H]3C(N)=O)cnn1-c1nc2c(c(=O)[nH]1)CCC2 [Q-0610]", "nM", 10]
]}

// returns IC50 for O=C(c1cccc(-c2nc3c(c(=O)[nH]2)CCC3)c1)N1CCC(C(F)(F)F)CC1 [Q-0593] with SNAP-hSPR (sepiapterin reductase, SPR) (Homo sapiens, UniProt P35270); value = 200

// returns IC50 for Cc1c(C(=O)N2CCN(S(=O)(=O)c3ccc(F)cc3F)CC2)cnn1-c1nn2cccc2c(=O)[nH]1 [Q-1866] with SNAP-hSPR (sepiapterin reductase, SPR) (Homo sapiens, UniProt P35270); value = 2

// returns IC50 for Cc1c(C(=O)N2CC3CCC(C2)C3C(F)(F)F)cnn1-c1nn2cccc2c(=O)[nH]1 (centres unmarked) [Q-1130] with SNAP-hSPR (sepiapterin reductase, SPR) (Homo sapiens, UniProt P35270); value = 1

// returns IC50 for CCC(O)(C1CCN(C(=O)c2cnn(-c3nn4cccc4c(=O)[nH]3)c2C)CC1)C(F)(F)F (centres unmarked) [Q-1052] with SNAP-hSPR (sepiapterin reductase, SPR) (Homo sapiens, UniProt P35270); value = 1

// returns IC50 for Cc1c(C(=O)N2CCC3(CC2)CC3c2nnc(-c3ccccc3)o2)cnn1-c1nn2cccc2c(=O)[nH]1 (centres unmarked) [Q-0696] with SNAP-hSPR (sepiapterin reductase, SPR) (Homo sapiens, UniProt P35270); value = 4

// returns IC50 for Cc1ccc(C2(C)CN(C(=O)c3cnn(-c4nc5c(c(=O)[nH]4)CCC5)c3C)CCO2)cc1 (centres unmarked) [Q-0501] with SNAP-hSPR (sepiapterin reductase, SPR) (Homo sapiens, UniProt P35270); value = 9

// returns IC50 for Cc1c(C(=O)N2CCN(S(=O)(=O)c3ccccc3OC(F)(F)F)CC2)cnn1-c1nn2cccc2c(=O)[nH]1 [Q-1861] with SNAP-hSPR (sepiapterin reductase, SPR) (Homo sapiens, UniProt P35270); value = 1

// returns IC50 for Cc1cc(=O)[nH]c(-n2ccc(C(=O)N3CCOCC3)n2)n1 [Q-0343] with SNAP-hSPR (sepiapterin reductase, SPR) (Homo sapiens, UniProt P35270); value = 100

// returns IC50 for Cc1c(C(=O)N2CCC(c3ccccc3)C2)cnn1-c1nc2c(c(=O)[nH]1)CCC2 (centres unmarked) [Q-0510] with SNAP-hSPR (sepiapterin reductase, SPR) (Homo sapiens, UniProt P35270); value = 5
